Provenance of the data: patent US20240309105A1

Study Target: human CD40 on cells (human, UniProt P25942 21-277)
Sequence (P25942 21-277): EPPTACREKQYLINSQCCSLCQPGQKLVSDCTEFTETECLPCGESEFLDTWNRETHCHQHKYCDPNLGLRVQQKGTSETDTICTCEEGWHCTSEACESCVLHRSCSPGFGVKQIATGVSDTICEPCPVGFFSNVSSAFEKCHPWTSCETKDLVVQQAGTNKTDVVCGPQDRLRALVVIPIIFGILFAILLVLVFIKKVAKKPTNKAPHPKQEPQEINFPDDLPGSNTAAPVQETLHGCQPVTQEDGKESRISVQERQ
Method Summary: cell-based or functional assay
Measured Parameter: B cell proliferation: Agonism (SI*)

- Antibody B (antibody, human IgG1, kappa, L234A L235A, V domains shown, also called humanized 20E2) VH: EVQLVESGGGLVKPGGSLRLSCAASGFTFSDYGMHWVRQAPGKGLEWVAYISSGNRIIYYADTVKGRFTISRDNAKNSLYLQMNSLRAEDTAVYYCARQDGYRYAMDYWGQGTLVTVSS VL: DIVMTQSPDSLAVSLGEKVTINCKSSQSLLNSGNQKNYLTWHQQKPGQPPKLLIYWTSTRESGVPDRFSGSGSGTDFTLTISSLQAEDVAVYYCQNDYTYPLTFGGGTKVEIKR: < 2 SI (Stimulation Index)
- Antibody C (antibody, human IgG1, kappa, L234A L235A, V domains shown, also called humanized 2H11) VH: QVQLVQSGAEVKKPGASVKVSCTASGFNIKDYYVHWVKQAPGQGLEWMGRIDPEDGDSKYAPKFQGKATMTADTSTSTVYMELSSLRSEDTAVYYCTTSYYVGTYGYWGQGTLVTVSS VL: DIQMTQSPSSLSASVGDRVTITCSASSSVSYMLWFQQKPGKAPKLLIYSTSNLASGVPSRFSGSGSGTDFTLTISSLQPEDFATYYCQQRTFYPYTFGGGTKVEIKR: < 2 SI (Stimulation Index)
- Antibody A (antibody, human IgG1, kappa, L234A L235A, V domains shown, also called humanized 20E2) VH: EVQLVESGGGLVKPGGSLRLSCAASGFTFSDYGMHWVRQAPGKGLEWVAYISSGNRIIYYADTVKGRFTISRDNAKNSLYLQMNSLRAEDTALYYCARQDGYRYAMDYWAQGTLVTVSS VL: DIVMTQSPDSLAVSLGERATMSCKSSQSLLNSGNQKNYLTWHQQKPGQPPKLLIYWTSTRESGVPDRFSGSGSGTDFTLTISSLQAEDVAVYYCQNDYTYPLTFGGGTKVEIKR: < 2 SI (Stimulation Index)
- 4D11 (Kirin/Astellas) anti-CD40 antibody (antibody, V domains shown) VH: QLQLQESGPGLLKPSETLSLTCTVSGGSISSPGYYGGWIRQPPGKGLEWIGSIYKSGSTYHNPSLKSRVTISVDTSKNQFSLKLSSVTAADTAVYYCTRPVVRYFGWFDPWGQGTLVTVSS VL: AIQLTQSPSSLSASVGDRVTITCRASQGISSALAWYQQKPGKAPKLLIYDASNLESGVPSRFSGSGSGTDFTLTISSLQPEDFATYYCQQFNSYPTFGQGTKVEIK: < 2 SI (Stimulation Index)
